// provenance: ChEMBL document CHEMBL4725374

# PROCEDURE_DETAILS: Apparent clearance in Sprague-Dawley rat at 3 mg/kg, iv measured after 0.03 to 72 hrs by LC-MS analysis
# Assay type: ADME, organism-based
# TEST_SETTINGS: in vivo, time 0.03-72 hrs, read-out: CL(app) (converted)

MOL: COc1ccc(S(=O)(=O)[N-]C(=O)c2cc3c(Nc4cccc(OC)c4)ccc(Cl)c3n2C)cc1.[Na+]
clearance / mL/min/kg: 1.25

* * *

# PROCEDURE_DETAILS: AUC (0 to t) in Sprague-Dawley rat at 50 mg/kg, po measured after 0.03 to 72 hrs by LC-MS analysis
# Format: ADME, organism-based
# Design: route oral, dose 50 mg/kg, time 0.03-72
# TEST_SETTINGS: in vivo

MOL: COc1ccc(S(=O)(=O)[N-]C(=O)c2cc3c(Nc4cccc(OC)c4)ccc(Cl)c3n2C)cc1.[Na+]
AUC(0-t) / µg·h/mL: 664
